assay: Pharmacokinetics in mice (i.v. and p.o.); format: in vivo, male CD-1 mice; settings: male, CD-1, mouse, in vivo, iv, 1 mg/kg
attributeMeasured: C0 (ng/mL)
Record the value in ng/mL, omitting the unit from your answer.

// known answers, use as guide
Prompt: # C0 lookup, item O=C(c1ccoc1)n1nc(-c2cccn(Cc3ccco3)c2=O)cc1NCc1ccc(Cl)s1 [Cmpd 26]
Response: 200

Prompt: Find the recorded C0 belonging to O=C(c1ccoc1)n1nc(-c2cccn(Cc3ccccn3)c2=O)cc1NCc1ccc(Cl)s1 [Cmpd 25] and report it.
Response: 100

Prompt: Query (molecule): Cn1cccc(-c2cc(NCc3ccc(Cl)s3)n(C(=O)c3ccoc3)n2)c1=O [Cmpd 23] ; field requested: C0
Response: 400

Next:
Prompt: Returns the measured C0 for the input molecule. Input: O=C(c1ccoc1)n1nc(-c2ccc[nH]c2=O)cc1NCc1ccc(Cl)s1 [Cmpd 4]
Response: 300

* * *

This listing pairs molecules with measured IC50.
Biological target: Human KLKB1 (Homo sapiens (Human))
Sequence (P03952 391-638 limits assumed): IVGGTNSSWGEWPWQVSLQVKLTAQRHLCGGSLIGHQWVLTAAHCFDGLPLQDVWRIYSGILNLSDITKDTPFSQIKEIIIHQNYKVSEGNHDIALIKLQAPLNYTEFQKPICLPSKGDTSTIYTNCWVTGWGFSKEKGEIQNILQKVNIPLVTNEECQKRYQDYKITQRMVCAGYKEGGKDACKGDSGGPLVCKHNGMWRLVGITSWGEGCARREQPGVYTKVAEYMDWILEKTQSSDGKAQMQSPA
Sequence (P03952 20-390 partner limits assumed): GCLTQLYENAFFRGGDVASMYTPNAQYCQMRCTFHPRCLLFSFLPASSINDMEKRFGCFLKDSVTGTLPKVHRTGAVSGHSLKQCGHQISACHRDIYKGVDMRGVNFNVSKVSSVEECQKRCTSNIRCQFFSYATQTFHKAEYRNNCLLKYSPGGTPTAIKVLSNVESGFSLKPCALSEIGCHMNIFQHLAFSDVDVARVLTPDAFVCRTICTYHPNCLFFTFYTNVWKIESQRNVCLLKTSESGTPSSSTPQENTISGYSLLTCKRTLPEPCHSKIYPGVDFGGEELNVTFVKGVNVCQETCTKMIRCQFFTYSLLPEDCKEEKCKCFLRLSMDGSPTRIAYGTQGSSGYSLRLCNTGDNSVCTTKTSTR
Assay: KLKB1 kallikrein activity inhibition assay (chromogenic substrate S-2302)
Format: biochemical
Conditions: Table C
Method: The KLKB1 kallikrein activity reported herein (e.g., Tables B, C, and D) was obtained as follows. Human KLKB1 protein was obtained from Enzyme Research Labs. […] KLKB1 was assayed in buffer containing 0.05 M Tris (pH 7.4), 0.01 M NaCl and 0.2% w/v PEG-8000. […] Inhibitor IC50 values were determined by adding test compound as ten point, three-fold serial dilutions in buffer solution, as known in the art. The plate was read at 10 minutes after substrate addition. […]

Before answering, review these 5 worked examples.
Prompt: For the molecule CC(C)CC(=O)n1nc(-c2ccccn2)nc1NCc1ccc(F)cc1 [Cmpd 304] , what IC50 is on record?
Response: 10 to 100 µM

Prompt: Record request: IC50 value, item COc1ccccc1C(=O)n1nc(C2CCNCC2)nc1NCc1ccc(Cl)s1 [Cmpd 387]
Response: < 0.1 µM

Prompt: Bench note: what IC50 did COc1ccc(CNc2nc(-c3cccnc3)nn2C(=O)Cc2ccccc2)cc1 [Cmpd 327] show?
Response: 10 to 100 µM

Prompt: Recorded IC50 of CC(C)CC(=O)n1nc(-c2ccncc2)nc1NCc1ccccc1 [Cmpd 353] , please.
Response: > 100 µM

Prompt: Can you look up the measured IC50 of CC(C)(C)C(=O)n1nc(C2CCCO2)nc1NCc1ccc(Cl)s1 (centres unmarked) [Cmpd 331] for me?
Response: 1 to 10 µM

***
Prompt: What IC50 value was documented for this molecule, CCC(=O)n1nc(-c2cccnc2)nc1NCc1cccs1 [Cmpd 340] ?
Response: 10 to 100 µM

Prompt: What IC50 value was documented for this molecule, O=C(c1ccco1)n1nc(-c2ccccn2)nc1NCc1ccccc1 [Cmpd 8] ?
Response: 1 to 10 µM

Prompt: What value of IC50 has been reported for the following molecule? O=C(Cc1ccccc1)n1nc(-c2ccncc2)nc1NCc1ccccc1 [Cmpd 352]
Response: > 100 µM

Prompt: Looking for the measured IC50 of CC(C)(C)C(=O)n1nc(-c2cccnc2)nc1NCc1ccc(F)cc1 [Cmpd 308] , can you help?
Response: 10 to 100 µM

Prompt: Return reported IC50; argument: O=C(c1cccs1)n1nc(-c2ccccn2)nc1NCc1ccccc1 [Cmpd 404]
Response: 1 to 10 µM

Prompt: Give the measured IC50 of COc1ccccc1C(=O)n1nc(-c2ccccn2)nc1NCc1ccc(F)cc1 [Cmpd 367] .
Response: 1 to 10 µM
